The measured values listed here are drawn from ChEMBL document CHEMBL1140903.

Test system: Blood
testProtocol: Inhibition of A23187-induced TBX2 release in human whole blood
Assay type: functional, tissue-based
readoutLabel: pIC50
Kindly note that pIC50 refers to -log10 of the concentration in mol/L and answer with the value alone.

Which value of pIC50 has been reported for `O=C(O)c1ccc(OCCc2c(CCNS(=O)(=O)CCn3ncnn3)n(C(c3ccccc3)c3ccccc3)c3ccc(Cl)cc23)cc1` in the records?
5.70
